Exercise: state measured CC50 at 6 days for each of the compounds provided.
- assayOverview: Cell viability assay (AlamarBlue) in HepAD38 cells
- settings: human

Given CCc1cc(F)cc2[nH]c(C(=O)N3CCc4[nH]nc(C5CCCO5)c4C3)cc12 (stereo not drawn) , state its recorded CC50 at 6 days.
> 10 µM

Can you check `CCc1cc(F)cc2[nH]c(C(=O)N3CCc4[nH]nc(C(=O)N(C)C5(COC)CC5)c4C3)cc12` next?
> 10 µM

Can you check `O=C(c1cc2ccc(Br)cc2[nH]1)N1CCc2n[nH]c(-c3cscn3)c2C1` next?
> 10 µM
